Listed here: items and their measured Papp A→B at 180 min.
protocol.summary: Caco-2 membrane permeability, improved method as used in the following Examples (96-well, 20 to 24 h preincubation)
Assay type: in vitro ADME
conditions: human, Caco-2, Caco-2 (cm/sec)
Method: In the following Examples, membrane permeability was measured in accordance with the improved method established as described above. […] Each well was shaken at 5% CO2, 37° C., and 80 rpm, and 180 minutes after the initiation, the sample on the basal side was collected and the permeation amount was measured by LC/MS. The membrane permeability coefficient (Papp) was calculated from the permeation amount. […]
Starred links: 1 amine or outer side, 2 acyl side, 3 side chain; linkers in the order of their positions; H or OH if unused. Positions of bridges follow the written chain, without caps; N, C: chain ends. Non-standard residues stand in square brackets, D forms with d. Residues, ends and D or L forms follow the SMILES beside them. *: point of attachment. X19 = CC(C)[C@@H](C(=O)C[C@H](C(=O)[*:2])[C@@H](C)O)N(C)[*:1]; NMePhe(3-Cl) = CN[C@@H](Cc1cccc(Cl)c1)C(=O)O; Tyr(3-F) = N[C@@H](Cc1ccc(O)c(F)c1)C(=O)O; NMeF = CN[C@@H](Cc1ccccc1)C(=O)O; NMeD = CN[C@@H](CC(=O)O)C(=O)O; NMeL = CN[C@@H](CC(C)C)C(=O)O; NMeV = CN[C@H](C(=O)O)C(C)C; NMeA = CN[C@@H](C)C(=O)O; Piperidide = C1CCN(*)CC1; Sar = CNCC(=O)O; tBu = CC(C)(C)*
Report only the number, with the unit ×10⁻⁶ cm/s understood.

Look over these answered cases.
>  <compound>
CC(C)C[C@@H]1NC(=O)[C@H](Cc2ccccc2)N(C)C(=O)[C@H](COC(C)(C)C)NC(=O)[C@H](Cc2ccccc2)N(C)C(=O)[C@H](C)N(C)C(=O)[C@H](CC(C)C)N(C)C(=O)[C@H](C)N(C)C(=O)C[C@@H](C(=O)N2CCCCC2)N(C)C(=O)[C@H](Cc2ccccc2)N(C)C(=O)[C@H]([C@@H](C)O)CC(=O)[C@H](C(C)C)N(C)C1=O [pd213] ([NMeA][NMeL][NMeA][NMeF]S(tBu)[NMeF]L[X19][NMeF][NMeD]-Piperidide; lactam N-10)

>  <value.units>
×10⁻⁶ cm/s

>  <Papp A→B at 180 min>
1.3

$$$$
>  <compound>
CC[C@H](C)[C@@H]1NC(=O)[C@H](CC(C)C)N(C)C(=O)[C@@H](C)NC(=O)C[C@@H](C(=O)N2CCCCC2)NC(=O)[C@H](C)N(C)C(=O)[C@H](Cc2ccccc2)N(C)C(=O)[C@H](COC(C)(C)C)NC(=O)[C@H](CC(C)C)N(C)C(=O)CN(C)C(=O)[C@H](Cc2ccc(O)c(F)c2)NC(=O)[C@H](CC(C)C)N(C)C1=O [pd124] ([dA][NMeL]I[NMeL][Tyr(3-F)][Sar][NMeL]S(tBu)[NMeF][NMeA]D-Piperidide; lactam N-11)

>  <value.units>
×10⁻⁶ cm/s

>  <Papp A→B at 180 min>
0.32

$$$$
>  <compound>
CC(C)C[C@H]1C(=O)N[C@@H](COC(C)(C)C)C(=O)N(C)[C@@H](Cc2ccccc2)C(=O)N(C)[C@@H](CC(C)C)C(=O)N(C)[C@H](C(=O)N2CCCCC2)CC(=O)N[C@H](C)C(=O)N(C)[C@@H](Cc2cccc(Cl)c2)C(=O)N[C@@H](C(C)C)C(=O)N(C)[C@@H](C(C)C)C(=O)N[C@@H]([C@@H](C)O)C(=O)N(C)CC(=O)N1C [pd159] ([dA][NMePhe(3-Cl)]V[NMeV]T[Sar][NMeL]S(tBu)[NMeF][NMeL][NMeD]-Piperidide; lactam N-11)

>  <value.units>
×10⁻⁶ cm/s

>  <Papp A→B at 180 min>
1.8

$$$$

Read the next record carefully.
Fill blank: measured Papp A→B at 180 min of the compound CC(C)C[C@@H]1NC(=O)[C@H](Cc2ccccc2)N(C)C(=O)[C@H]([C@@H](C)O)NC(=O)[C@H](Cc2ccccc2)NC(=O)[C@H](Cc2ccccc2)N(C)C(=O)C[C@@H](C(=O)N2CCCCC2)NC(=O)[C@H](C)N(C)C(=O)[C@H](CC(C)C)N(C)C(=O)CN(C)C(=O)[C@H](CC(C)C)N(C)C(=O)[C@H](Cc2ccccc2)N(C)C1=O [pd230] ([NMeF]FT[NMeF]L[NMeF][NMeL][Sar][NMeL][NMeA]D-Piperidide; lactam N-11) is ____.
0.25

Source of measurements: patent US20200131669A1
